# System: HepG2
# experiment: Cytotoxicity against human HepG2 cells assessed as growth inhibition at 40 ug/mL after 72 hrs by MTT assay
# Format: functional
# particulars: HepG2, 72 h, read-out: GI
property_label: inhibition of growth at 40 µg/mL (%)
Lab book: enter the figure in %, no units written.

Illustrative cases are given below, each with its answer.
{"chemical_structure": "O=C(NCc1ccc(F)cc1)c1cc2c([nH]c3ccccc32)c(C(=O)c2c[nH]c3ccccc23)n1", "property_label": "inhibition of growth at 40 µg/mL", "data_value": 73.9}
{"chemical_structure": "O=c1[nH]cc(F)c(=O)[nH]1", "property_label": "inhibition of growth at 40 µg/mL", "data_value": 72.6}

# ---- query molecule ----
## Input // fetch inhibition of growth at 40 µg/mL given entry O=C(NCc1ccccn1)c1cc2c([nH]c3ccccc32)c(C(=O)c2c[nH]c3ccccc23)n1
## Output 79.6

====

# experiment: Cytotoxicity against human A875 cells assessed as growth inhibition at 40 ug/mL after 72 hrs by MTT assay
# Format: functional
# particulars: A875, 72 h, read-out: GI
property_label: inhibition of growth at 40 µg/mL (%)
Lab book: enter the figure in %, no units written.

Illustrative cases are given below, each with its answer.
{"compound": "COc1cccc(CCNC(=O)c2cc3c([nH]c4ccccc43)c(C(=O)c3c[nH]c4ccccc34)n2)c1", "inhibition of growth at 40 µg/mL [%]": 16.6}
{"compound": "COC(=O)C(CO)NC(=O)c1cc2c([nH]c3ccccc32)c(C(=O)c2c[nH]c3ccccc23)n1 (stereo unspecified)", "inhibition of growth at 40 µg/mL [%]": 83.9}

## Input // fetch inhibition of growth at 40 µg/mL given entry O=C(NCCc1c[nH]c2ccccc12)c1cc2c([nH]c3ccccc32)c(C(=O)c2c[nH]c3ccccc23)n1
## Output 77.8

## Input // fetch inhibition of growth at 40 µg/mL given entry O=C(NCc1ccc(F)cc1)c1cc2c([nH]c3ccccc32)c(C(=O)c2c[nH]c3ccccc23)n1
## Output 68.1

## Input // fetch inhibition of growth at 40 µg/mL given entry O=C(NCc1ccccn1)c1cc2c([nH]c3ccccc32)c(C(=O)c2c[nH]c3ccccc23)n1
## Output 70.7

## Input // fetch inhibition of growth at 40 µg/mL given entry O=C(c1c[nH]c2ccccc12)c1nccc2c1[nH]c1ccccc12
## Output 59.1

## Input // fetch inhibition of growth at 40 µg/mL given entry COc1ccc(CCNC(=O)c2cc3c([nH]c4ccccc43)c(C(=O)c3c[nH]c4ccccc34)n2)cc1OC
## Output 0

## Input // fetch inhibition of growth at 40 µg/mL given entry CS(=O)(=O)CCNC(=O)c1cc2c([nH]c3ccccc32)c(C(=O)c2c[nH]c3ccccc23)n1
## Output 87.9

====

# Tested on: HepG2
# experiment: Cytotoxicity against human HepG2 cells assessed as growth inhibition at 40 ug/mL after 72 hrs by MTT assay
# Format: functional
# particulars: HepG2, 72 h, read-out: GI
Please enter T where inhibition of growth at 40 µg/mL is greater than or equal to 40%, and F where it is lower.

Example cases with answers are listed next.
{"compound": "O=C(NCc1cccnc1)c1cc2c([nH]c3ccccc32)c(C(=O)c2c[nH]c3ccccc23)n1", "answer_label": "T"}
{"compound": "O=C(NCc1ccccc1)c1cc2c([nH]c3ccccc32)c(C(=O)c2c[nH]c3ccccc23)n1", "answer_label": "T"}
{"compound": "COc1ccc(NC(=O)c2cc3c([nH]c4ccccc43)c(C(=O)c3c[nH]c4ccccc34)n2)cc1", "answer_label": "T"}
{"compound": "O=C(NCCc1cccc(O)c1)c1cc2c([nH]c3ccccc32)c(C(=O)c2c[nH]c3ccccc23)n1", "answer_label": "T"}
{"compound": "O=C(NCCc1ccccc1)c1cc2c([nH]c3ccccc32)c(C(=O)c2c[nH]c3ccccc23)n1", "answer_label": "T"}

## Input # bool: inhibition of growth at 40 µg/mL of O=C(c1c[nH]c2ccccc12)c1nccc2c1[nH]c1ccccc12 >= 40%
## Output F
